target.entity: NADPH oxidase 5 (Homo sapiens) (UniProt Q96PH1)
Sequence (Q96PH1 whole entry, looked up): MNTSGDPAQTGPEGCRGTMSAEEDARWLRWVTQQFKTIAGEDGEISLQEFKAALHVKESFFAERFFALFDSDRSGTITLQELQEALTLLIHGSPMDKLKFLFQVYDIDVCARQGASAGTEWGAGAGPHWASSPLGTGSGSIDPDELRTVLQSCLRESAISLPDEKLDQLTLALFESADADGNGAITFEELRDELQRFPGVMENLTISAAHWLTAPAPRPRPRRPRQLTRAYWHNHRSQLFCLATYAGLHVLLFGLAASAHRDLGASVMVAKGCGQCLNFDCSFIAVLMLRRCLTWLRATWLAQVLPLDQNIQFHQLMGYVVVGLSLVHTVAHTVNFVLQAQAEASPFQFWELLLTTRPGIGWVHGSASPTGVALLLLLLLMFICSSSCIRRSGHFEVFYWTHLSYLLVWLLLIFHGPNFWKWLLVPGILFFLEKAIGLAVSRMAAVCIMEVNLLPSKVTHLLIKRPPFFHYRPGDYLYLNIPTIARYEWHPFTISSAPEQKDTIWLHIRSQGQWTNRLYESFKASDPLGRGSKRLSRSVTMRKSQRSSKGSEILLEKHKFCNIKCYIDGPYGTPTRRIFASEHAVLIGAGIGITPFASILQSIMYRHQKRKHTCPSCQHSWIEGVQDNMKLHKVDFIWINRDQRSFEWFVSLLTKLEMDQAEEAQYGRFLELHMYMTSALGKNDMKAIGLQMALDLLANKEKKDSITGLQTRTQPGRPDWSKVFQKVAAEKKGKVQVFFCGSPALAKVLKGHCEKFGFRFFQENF
protocol.details: NOX5-dependent H2O2 signal modulators, primary screen, NOX inhibitor project, cell-based, HEK293-NOX5, Amplex Red fluorescence (AID 1161)
measurement.parameters: HEK293-NOX5, ionomycin, 45 min, higher = more signal
Values of z-score greater than or equal to -0.06 map to YES; values below map to NO.

Query block: For this compound, is measured z-score -0.06 or higher? CON=CC[C@@H]1C=C[C@H](OC(C)=O)[C@@H](COC(C)=O)O1
Result block: NO

Query block: Entry CCOC(=O)[C@H](Cc1ccccc1)NC(=O)CCC1CC(OC(=O)NCc2cccc3ccccc23)CC2(CCCC(COC(=O)NCc3ccccc3)O2)O1 (some centres undefined) : is its z-score no less than -0.06?
Result block: NO

Query block: For this compound, is measured z-score -0.06 or higher? O=C(NN=C1C[C@@H](O)[C@@H](O)[C@@H]2[C@@H]3C(=O)N(C4CCCCC4)C(=O)[C@@H]3CC[C@H]12)OCc1ccccc1
Result block: NO

Query block: Please check the record COC(=O)[C@H](C)NC(=O)CCC1CC(OC(=O)NCc2ccc3c(c2)OCO3)CC2(CCCC(COC(=O)NCC(c3ccccc3)c3ccccc3)O2)O1 (some centres undefined) and state if its z-score is at or above -0.06.
Result block: NO

Query block: z-score >= -0.06 for C#CCCCON=C1C[C@@H](O)[C@@H](O)[C@@H]2[C@@H]3C(=O)N(c4ccc(F)cc4F)C(=O)[C@@H]3CC[C@H]12 ?
Result block: YES

Query block: Hi, just wondering whether C=CC[C@@H]1C=C[C@H](ON=C[C@@H](C)[C@H](OCc2ccccc2)C(C)C)[C@@H](CO)O1 shows z-score of -0.06 or higher.
Result block: NO

Query block: Could you verify whether the entry COc1ccc(O[C@H]2C=C[C@@H](c3ccccc3)O[C@@H]2CON=C(C)C)cc1 shows z-score of no less than -0.06?
Result block: NO

Query block: Exam item: decide whether the reported z-score for CCOC(=O)NN=C1C[C@@H](O)[C@@H](O)[C@@H]2[C@@H]3C(=O)N(Cc4ccc5c(c4)OCO5)C(=O)[C@@H]3CC[C@H]12 is at least -0.06.
Result block: NO

Query block: Does z-score meet or surpass -0.06 for O=C1C[C@@H](O)[C@@H](O)[C@@H]2[C@@H]3C(=O)N(Cc4ccccc4)C(=O)[C@@H]3CC[C@@H]12 ?
Result block: NO

Query block: z-score >= -0.06 for CCOC(=O)[C@H](CC(C)C)NC(=O)CCC1CC(OC(=O)NCc2ccc3c(c2)OCO3)CC2(CCCC(COC(=O)NCc3cccc(C(F)(F)F)c3)O2)O1 (some centres undefined) ?
Result block: YES

Query block: Record CO[C@@H]1COC(=O)[C@@H](C)NC(=O)CC=C[C@@H](C)[C@H](NS(=O)(=O)c2ccc(C)cc2)COC(=O)[C@H](C)NC(=O)CC=C[C@H]1C ; criterion: z-score no lower than -0.06. Met?
Result block: NO

Query block: Decide: z-score of CCOC(=O)NN=C1C[C@@H](O)[C@@H](O)[C@@H]2[C@@H]3C(=O)N([C@@H](C)c4ccccc4)C(=O)[C@@H]3CC[C@H]12 >= -0.06?
Result block: NO

Query block: z-score >= -0.06 for O=C(NN=C1C[C@@H](O)[C@@H](O)[C@@H]2[C@@H]3C(=O)N(C4CCCCC4)C(=O)[C@@H]3CC[C@@H]12)OCc1ccccc1 ?
Result block: YES

Query block: Has C#CCCCON=C1C[C@@H](O)[C@@H](O)[C@@H]2[C@@H]3C(=O)N(CC)C(=O)[C@@H]3CC[C@@H]12 a recorded z-score greater than or equal to -0.06?
Result block: NO

Query block: Entry Cc1cc2c(c(=O)o1)[C@@H](O)[C@H]1O[C@H]1C2=O : is its z-score no less than -0.06?
Result block: NO

Query block: Please tell me: is the compound O=C1[C@H]2[C@H]3[C@H](O)[C@H](O)CC(=NOC[C@@H](O)COCc4ccco4)[C@H]3CC[C@H]2C(=O)N1c1ccc(F)cc1F at or over -0.06 in terms of z-score?
Result block: YES

Query block: Please tell me: is the compound CCc1cc2c(nc1CC)CCN(CCC(C)=NO[C@H](C)c1cn([C@@H]3COC[C@H]3O)nn1)C2 at or over -0.06 in terms of z-score?
Result block: YES

Query block: Test whether the compound CC(=O)OC[C@H]1OC(ON=CC[C@@H]2C=C[C@H](OC(C)=O)[C@@H](COC(C)=O)O2)[C@H](OC(C)=O)[C@@H](OC(C)=O)[C@@H]1OC(C)=O (some centres undefined) records z-score of -0.06 or higher.
Result block: YES

Query block: Test whether the compound O=C1C2=CC[C@H]3C(=O)N(c4cccc(Oc5ccccc5)c4)C(=O)[C@H]3[C@H]2[C@H](O)[C@@H]2O[C@H]12 records z-score of -0.06 or higher.
Result block: YES

Query block: Test whether the compound O=C1C[C@@H](O)[C@@H](O)[C@@H]2[C@@H]3C(=O)N(Cc4ccc5c(c4)OCO5)C(=O)[C@@H]3CC[C@H]12 records z-score of -0.06 or higher.
Result block: NO

Query block: Evaluate C[C@@H](c1ccccc1)N1C(=O)[C@H]2[C@H]3[C@H](O)[C@H](O)CC(=NO[C@@H]4O[C@H](CO)[C@@H](O)[C@H](O)[C@H]4O)[C@H]3CC[C@H]2C1=O : z-score at minimum -0.06?
Result block: NO

Query block: Tell me whether z-score is at least -0.06 here: COC(=O)C1=C(C)N(Cc2ccccc2)[C@]23O[C@](C(=O)OC)(C(=O)N2[C@@H]1c1ccccc1)C(C(=O)OC)=C3C(=O)OC
Result block: YES

Query block: z-score >= -0.06 for CC(C)(C)N1C(=O)[C@H]2[C@H]3[C@H](O)[C@H](O)CC(=O)[C@@H]3CC[C@H]2C1=O ?
Result block: YES

Query block: Please check the record COC(=O)[C@@H]1CC[C@@H](C)[C@H](c2ccc(Br)cc2)N1 and state if its z-score is at or above -0.06.
Result block: NO

Query block: Does the reported z-score for COC(=O)[C@@H]1CC[C@H](C)[C@@H](c2ccc(C)cc2)N1C(=O)c1ccc(C=NO[C@H](C)c2cn([C@@H]3COC[C@H]3O)nn2)cc1 fall at or above the -0.06 mark?
Result block: YES

Query block: I'd appreciate it if you could say whether CON=C[C@@H](C)[C@H](OCc1ccccc1)C(C)C has z-score at least equal to -0.06.
Result block: NO

Query block: Does the compound CCOC(=O)NN=C1C[C@@H](O)[C@@H](O)[C@@H]2[C@@H]3C(=O)N(c4ccc(F)cc4F)C(=O)[C@@H]3CC[C@@H]12 have recorded z-score that is -0.06 or more?
Result block: NO

Query block: Determine whether this compound has z-score no lower than -0.06: CC(C)=NOC[C@@H](C)[C@H](OCc1ccccc1)C(C)C
Result block: NO

Query block: Is z-score at least -0.06? Consider COc1cccc([C@H]2Oc3ccc(OC)cc3C(=NO[C@@H](C)c3cn([C@H](CO)Cc4ccccc4)nn3)[C@@H]2O)c1
Result block: NO
